Entry source: patent US20250027068

Documented Enzyme Activity Endpoint Assay (purified): Fc across a set of proteins
# TARGET ENTITY: pooled human IgG (human IgG1, 2, 3 and 4)
READOUT LABEL: Enzyme Activity Endpoint Assay (purified): Fc (ng/µL)

# PROTEIN, ENDPOINT VALUE
rows = [
    ("PRT-646 (protein) MQITSVWTKGVTPLTPEQFRYNNEDVIHAPYLAHQGWYDITKAFDGKDNLLCGAATAGNMLHWWFDQNKTEIEAYLSKHPEKQKIIFNNQELFDLKAAIDTKDSQTNSQLFNYFRDKAFPNLSARQLGVMPDLVLDMFINGYYLNVFKTQSTDVNRPYQDKDKRGGIFDAVFTRGDQTTLLTETTDLYGKGLNDISTIIKQELTEGRALALSHTYANVSISHVINLWGADFNAEGNLEAIYVTDSDANASIGMKKYFVGINAHGHVAISAKKIEGENIGAQVLGLFTLSSGKDIWQKLSLEHHHHHH", 435),
    ("PRT-644 (protein) MQITSVWTKGVTPLTPEQFRYNNEDVIHAPYLAHQGWYDITKAFDGKDNLLCGAATAGNMLHWWFDQNKTEIEAYLSKHPEKQKIIFNNQELFDLKAAIDTKDSQTNSQLFNYFRDKAFPNLSARQLGVMPDLVLDMFINGYYLNVFKTQSTDVNRPYQDKDKRGGIFDAVFTRGDQTTLLTARHDLKNKGLNDISTIIKQELTEGRALALSHTYANVSISHVINLWGADFNAEGNLEAIYVTDSDANASIGMKKYYVGKNASGHVAISAKKIEDENIGAQVLGLFTLSSGKDIWQKLSLEHHHHHH", 518),
    ("PRT-404 (protein) MVTSVWTKGVTPPADFTQGEDVFHAPYVANQGWYDITKTFNGKDDLLCGAATAGNMLHWWFDQNKEYIEAYLKKHPEKQKIMFGDQELLDVRKAINTKGSQKNSELFNYFRDKAFPNLSARRLGVMPDLVLDMFINGYYLNVTKTQTTDVNRTYQEKDKRGGIFDAVFTRGDQSKLLTSRHDFKEKGLKEISDLIKQELTEGKALGLSHTYANVRIGHVINLWGADFDSDGNLKAIYVTDSDSNASIGMKKYFVGVNSAGKVAISAKEIKEDNIGAQVLGLFTLSTGQDIWNQTN", 0),
    ("PRT-651 (protein) MQITSVWTKGVTPLTPEQFRYNNEDVIHAPYLAHQGWYDITKAFDGKDNLLCGAATAGNMLHWWFDQNKTEIEAYLSKHPEKQKIIFNNQELFDLKAAIDTKDSQTNSQLFNYFRDKAFGNLSARQLGVMPDLVLDMFINGYYLNVGKTQSTDVNRPYQTRDKRGGIFDAVFTRGDQTTLLTARHDLKNKGLNDISTIIKQELTEGRALALSHTYANVSISHVINLWGADFNAEGNLEAIYVTDSDANASIGMKKYFVGINAHGHVAISAKKIEGENIGAQVLGLFTLSSGKDIWQKLSLEHHHHHH", 367),
]
